Would you mind telling me the reported log10 of EC50 of each entry?
Biological target: T1, HD21 (huntingtin exon 1 protein with 21 polyQ repeats after cleavage of the GST tag; aggregation reaction) (human, UniProt P42858 1-88)
T1 chain: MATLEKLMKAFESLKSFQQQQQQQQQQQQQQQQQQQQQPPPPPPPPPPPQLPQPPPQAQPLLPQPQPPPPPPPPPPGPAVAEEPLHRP
Assay: ELISA
Heads up: the numbers are on a log10 scale; they represent EC50 in nM.

INSERT INTO assay_data (binder, test_value) VALUES
  ('NI-302.64E5 (antibody, V domains shown) VH: EVQLVETGGGLVKPGGSLRLSCAASGFTFDQAWMSWVRQVPGKGLEWVGRIKTKTEGEATDYAAPVRGRFTISRDDSEDTVFLQMNSLKTEDTALYYCTSTGVLAAAVDVYWGQGTLVTVSS VL: DIQLTQSPDSLAVSLGERATMTCKSSQSLFYSYNNENYLAWYQQRPGQPPKLLIYWASTRESGVPDRFSGSGSGTDFTLTISSLQAEDVAVYYCQQYYSTPQTFGQGTKVDIK', -0.15),
  ('NI-302.31F11 (antibody, V domains shown) VH: EVQLVESGGGLIQPGGSLRLSCAASGFTVSSTYMSWVRQAPGKGLECVSVIFSGADTYYADSVKGRFTVSRDNSKNTLFLQMNSLRVEDTATYYCVRHYYGSDLPSDFWGQGTLVTVSS VL: DVVMTQSPLSLPVAPGEPASISCRSSQSLLYSNGYNYLDWYLQKPGKPPQLLVYLGSDRASGVPDRFSGSGSGKDFTLNISRVEAEDVGVYYCMQGLQSPWTFGQGTKLEIK', 0.63),
  ('NI-302.2A2 (antibody, V domains shown) VH: EVQLVESGGGLVQPGGSLRLSCAASGFTFSTYWMNWVRQAPGKGLEWVANIKPDGSDKYYVDSVKGRFTISRDNAKNSLYLQMNSLRDEDTAVYYCARGDGSGWNVYWGQGTLVTVSS VL: DIQMTQSPDSLAVSLGERATINCKSSQSLLYTSKNKDSKNYLGWYQQKPGQPPKLLIYWASTRESGVPDRFSGSGSGTDFTLTISSLQAEDVAVYYCQQYYTTPQFGGGTKVEIK', 1.09),
  ('NI-302.72F10 (antibody, V domains shown) VH: EVQLVETGGGFVQPGGSLRLSCAASGFNFGSYAMSWVRQAPGKGLEWVSDISGIGSNTYYADSVKGRFTISRDNSDNTLYLDMSSLRAEDTARYYCAKDRKRSGWYEQWGQGTLVTVSS VL: EIVMTQSPATLTLSPGERATLSCRASQSISAYLGWYQQKPGQAPRLLIYDASIRATGIPDRFSGSGSGTDFTLTISSLEPEDSAVYYCHQRSKWPLTFGGGTKVEIK', 0.60),
  ('NI-302.35C1 (antibody, V domains shown) VH: EVQLVESGGNLVQPGGSLRLSCTASGFTFSITALSWVRQAPEKGPQWVSAITGNAYGTYYADSVKGRFTISRDNAKNTLYLQMNGLRAEDTAIYYCVKGIASDSSGYSAFWGPGTLVTVSS VL: EIVLTQSPATLSLSPGERATLSCRASQSVDNQFAWYQQKPGQAPRLLIYDASRRAPGIPDRFSGSGSGTDFTLTISSLEPEDFAIYYCQHRYTWLYTFGQGTRLEIK', 0.90);

Give measured log10 of EC50 for every item shown.
1. NI-302.63F3 (antibody, V domains shown) VH: QVQLVQSGSAFKKPGTSVKVSCKASGYTFETRSMNWVRQAPGQGLEYMGWINTNTGNRTYVQAFRGRFVFSLDTSVSTAYLQISNLKTEDTAVYYCARGAGGGYWFDSWGQGTLVTVSS VL: DIQMTQSPDSLAVSLGERATINCKSNQSLFYSSNNNNYLAWYQHKSGQPPKLLVYWGSTRESGVPDRFSGSGSGTDFTLTISSLQAEDVAIYYCHQYYHNPYTFGQGTKLEIK
2. NI-302.6N9 (antibody, V domains shown) VH: EVQLVESGGDLVQPGGSLRLSCVVSGFTFSSYAMTWVRQAPGKGLAWVSTISATGGSTFYTDSVRGRFTISRDNSKNTLYLQMNSLRTDDTAIYYCVKDLFGVDTSYYGMDVWGQGTTVTVSS VL: EIVLTQSPGTLSLSPGERATLSCRPSQSVSGRYVAWYQQKPGQAPRLLFYAASNRAIGIPDRFSGSGSGTDFTLTISRLEPEDFAVYYCQHYGASSYTFGPGTKVDIK

## Result
-0.52
-0.68

## Task Consider the binder NI-302.74C11 (antibody, V domains shown) VH: EVQLVQSGTEVQKPGASVKVSCKASGYSFTGYFLHWVRQAPGQGLEWMGWINPNSGDTNYAEKFRGRIIMTRDTSVSTAHMELSSLRFDDTALYYCTREAPDPGAETDVWGQGTTVTVSS VL: QSVLTQPPSVSVSPGQTARITCSGDAVPKQYIYWYQQKPGQAPILVIYKDTQRPSGIPERFSGSNSGTTVTLTITGVQADDEGDYYCQSADSSATWVFGGGTKLTVL and give its recorded log10 of EC50.
## Result -0.30
